test system: VchCAST RNA-guided transposition machinery (E. coli BL21(DE3) host, lacZ target); assay: relative integration efficiency (T-LR orientation) vs wild-type transposon end (log2 (normalized fold change)); transposon end mutated: right end (5 bp flank + 75 bp right end); higher = more efficient transposition
readout: relative integration efficiency (log2)
The answer should be a number; do not append a unit.

Observe how each entry below is paired with its result.
ordered-residues	value-reported
ACATTTGTTGATACACCCATAAATTGATAATTACACCCATAAATTGATAATTATCACAACCATATATTGATATCTCCTCTGATCATAGTCAGACCAACATTGCTACGACCCGTATTCGCACCGACAC	-0.271
ACATTTGTTGATACACCCATAAATTGATAATTACAACCATATATTGATATCTCTCACAACCATAAGTTGATATTTTCTCTGATCATAGTCAGACCAACATTGCTACGACCCGTATTCGCACCGACAC	0.798
AACGGTGTTGATACAACCATAAAATGATAATTACACCCATAAATTGATAATTATCACACCCATAAATTGATATTGCCTCTGATCATAGTCAGACCAACATTGCTACGACCCGTATTCGCACCGACAC	0.221
ACATTTGTTGATACAACCATAAGTTGATATTTTCAACCATAAGTTGATATTTTTCACAACCATATATTGATATCTCCTCTGATCATAGTCAGACCAACATTGCTACGACCCGTATTCGCACCGACAC	-0.115

Query ACATTTGTTCATACAACCCTAAAATGATAATTACACCCATAAATGGATAATTATCACACCCAATTTAACTATAACGCTCTGATCATAGTCAGACCAACATTGCTACGACCCGTATTCGCACCGACAC yields relative integration efficiency (log2) of -2.78

----------
system: VchCAST RNA-guided transposition machinery (E. coli BL21(DE3) host, lacZ target); experiment: relative integration efficiency (T-LR orientation) vs wild-type transposon end (log2 (normalized fold change)); transposon end mutated: right end (5 bp flank + 75 bp right end); higher = more efficient transposition
relative integration efficiency (log2) reference
Please reply with the number alone, leaving off any unit.

These recorded examples may help you get a feel for the data.
ordered-residues	target-entity	relative integration efficiency (log2)
ACATTTGTAGATAAAACCATACGTTGATTTTACGAAACCATACGCTGAAATAATCACACCCATAAATTGATATTGCCTCTGATCATAGTCAGACCAACATTGCTACGACCCGTATTCGCACCGACAC	VchCAST RNA-guided transposition machinery (E. coli BL21(DE3) host, lacZ target)	-5.26
ACATTTGTTGATACAACCATAAAATGATAATTACTCTGATCATAGTCACACCCATAAATTGATAATTATCAGTGGGTATTTAACTATAACGGACCAACATTGCTACGACCCGTATTCGCACCGACAC	VchCAST RNA-guided transposition machinery (E. coli BL21(DE3) host, lacZ target)	-0.923

Data point: ACATTTGTCGATACAACCCTAAAATGATAATTACACCCATAAATGGATCATTATCACACCCAATTTAACTATAACGCTCTGATCATAGTCAGACCAACATTGCTACGACCCGTATTCGCACCGACAC ; relative integration efficiency (log2) = -1.24

----------
// reported relative integration efficiency (log2) for each item listed
tested on: VchCAST RNA-guided transposition machinery (E. coli BL21(DE3) host, lacZ target); experiment: relative integration efficiency (T-LR orientation) vs wild-type transposon end (log2 (normalized fold change)); transposon end mutated: right end (5 bp flank + 75 bp right end); higher = more efficient transposition
I only need the number, thanks.

// worked examples, relative integration efficiency (log2) included
ordered-residues	value-reported
ACATTTGTTGATACAACCATAAAATGATAATTAATAATTATTCACCCATAAATTGATAATTATCAACAAACGCCCGGTCGCGGTACTCTGATCATAGTCAGACCAACATTGCTACGACCCGTATTCG	0.337
ACATTTGTTGATACAACCATAAAATGATAATTACACCCATAAATTGATAATTATCACACCCATAAATTGATATTGCCTCTGATCATAGTCGAACTAGTTAACTAGTACGCTCAGACCGCACCGACAC	0.192

Now turn to the next sequence.
relative integration efficiency (log2) recorded for this sequence, ACATTTGTTGATACAACCATATTTAGATAATTACACCCATAAATTGATAATTATCACACCCATAAATTGATATTGCCTCTGATCATAGTCAGACCAACATTGCTACGACCCGTATTCGCACCGACAC , is -0.623

The measured values listed here are drawn from the supplement of paper PMC10201428.
